settings: in n-octanol, 318.15 K
READOUT LABEL: solubility (mole fraction)
Give the value as a plain number.

Report solubility (mole fraction) for NC(N)=S 0.032

====

conditions: in chlorobenzene, 303.15 K
READOUT LABEL: solubility (mole fraction)
Give the value as a plain number.

Report solubility (mole fraction) for NC(N)=S 0.00127

====

conditions: in n-propanol, 313.15 K
READOUT LABEL: solubility (mole fraction)
Give the value as a plain number.

Report solubility (mole fraction) for NC(N)=S 0.0292

====

details: in ethyl acetate, 308.15 K
READOUT LABEL: solubility (mole fraction)

Report solubility (mole fraction) for NC(N)=S 0.021

====

details: in toluene, 303.15 K
READOUT LABEL: solubility (mole fraction)
Give the value as a plain number.

Report solubility (mole fraction) for NC(N)=S 0.0025

====

conditions: in isopropanol, 343.15 K
READOUT LABEL: solubility (mole fraction)
Give the value as a plain number.

Report solubility (mole fraction) for NC(N)=S 0.0588

====

details: in chlorobenzene, 313.15 K
READOUT LABEL: solubility (mole fraction)
Give the value as a plain number.

Report solubility (mole fraction) for NC(N)=S 0.00157

====

details: in acetonitrile, 343.15 K
READOUT LABEL: solubility (mole fraction)
Give the value as a plain number.

Report solubility (mole fraction) for NC(N)=S 0.0112

====

details: in n-propanol, 323.15 K
READOUT LABEL: solubility (mole fraction)
Give the value as a plain number.

Report solubility (mole fraction) for NC(N)=S 0.036

====

settings: in benzene, 303.15 K
READOUT LABEL: solubility (mole fraction)
Give the value as a plain number.

Report solubility (mole fraction) for NC(N)=S 0.00283

====

details: in methanol, 308.15 K
READOUT LABEL: solubility (mole fraction)
Give the value as a plain number.

Report solubility (mole fraction) for NC(N)=S 0.0654

====

conditions: in ethyl acetate, 328.15 K
READOUT LABEL: solubility (mole fraction)
Give the value as a plain number.

Report solubility (mole fraction) for NC(N)=S 0.0264

====

conditions: in n-butanol, 303.15 K
READOUT LABEL: solubility (mole fraction)
Give the value as a plain number.

Report solubility (mole fraction) for NC(N)=S 0.0207

====

conditions: in methanol, 318.15 K
READOUT LABEL: solubility (mole fraction)
Give the value as a plain number.

Report solubility (mole fraction) for NC(N)=S 0.0804

====

details: in n-propanol, 333.15 K
READOUT LABEL: solubility (mole fraction)
Give the value as a plain number.

Report solubility (mole fraction) for NC(N)=S 0.0451

====

settings: in m-xylene, 333.15 K
READOUT LABEL: solubility (mole fraction)
Give the value as a plain number.

Report solubility (mole fraction) for NC(N)=S 0.00422

====

settings: in m-xylene, 328.15 K
READOUT LABEL: solubility (mole fraction)
Give the value as a plain number.

Report solubility (mole fraction) for NC(N)=S 0.00375

====

settings: in benzene, 318.15 K
READOUT LABEL: solubility (mole fraction)

Report solubility (mole fraction) for NC(N)=S 0.00372

====

settings: in ethyl acetate, 313.15 K
READOUT LABEL: solubility (mole fraction)
Give the value as a plain number.

Report solubility (mole fraction) for NC(N)=S 0.0221
